- study_system: Full length LIGHT T191A on HEK293FF cells (Homo sapiens (Human), UniProt O43557 1-240)
- Sequence (O43557 whole entry T191A): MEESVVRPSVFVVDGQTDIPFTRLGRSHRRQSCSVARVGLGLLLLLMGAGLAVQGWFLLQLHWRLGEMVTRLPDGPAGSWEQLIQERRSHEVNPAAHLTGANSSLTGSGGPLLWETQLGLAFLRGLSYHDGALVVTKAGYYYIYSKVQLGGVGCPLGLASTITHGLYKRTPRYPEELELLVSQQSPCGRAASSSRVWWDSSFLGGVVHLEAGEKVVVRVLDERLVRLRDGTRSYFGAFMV
- measurement_notes: flow cytometry, HEK293FF, mAb at EC50
assay_readout: % of WT binding (%)
State the answer as a number, implicitly in %.

binder: 3B04 chimeric IgG4 mAb (antibody, V domains shown, also called Parental 3B04) VH: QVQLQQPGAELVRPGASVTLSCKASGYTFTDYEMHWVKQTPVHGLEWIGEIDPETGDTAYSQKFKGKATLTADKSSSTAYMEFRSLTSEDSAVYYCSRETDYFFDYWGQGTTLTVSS VL: DIQMTQTPASLSASVGETVTITCGASENIYGALNWYQRKQGKSPQLLIYGATNLADGMSSRFSGSGSGRQYSLKISSLHPDDFATYYCQNVLTTPWTFGGGTKLEIK
measured_number: 2
//
binder: 3D12 chimeric IgG4 mAb (antibody, V domains shown, Chimeric human IgG4 (S-to-P, L-to-E) with human CL, as m1; also called Parental 3D12; 03D12) VH: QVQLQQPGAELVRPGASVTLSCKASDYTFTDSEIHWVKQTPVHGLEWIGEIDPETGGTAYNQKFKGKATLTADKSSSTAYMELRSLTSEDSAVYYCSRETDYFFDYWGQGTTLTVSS VL: DIQMTQSPASLSASVGETVTITCGASENIYGALNWYQRKQGKSPQLLIYGATNLADGMSSRFSGSGSGRQYSLKISSLHPDDVATYYCQNVLSTPWTFGGGTKLEIK
measured_number: 8

Ask | Given the binder 2B11 chimeric IgG4 mAb (antibody, V domains shown, Chimeric human IgG4 (S-to-P, L-to-E) with human CL, as m1; Often misprinted 2B111; also called Parental 2B11; 2B111) VH: EVQLVESGAELVRPGVSVKISCKGSGYTFTDYAIHWVKQSHAKSLEWIGVISTYYGDASYNQKFKGKATMTVDKSSSTAYMELARLTSEDSAIYYCARSRGEYGNYDAMDYWGQGTSVTVSS VL: DIVLTQSPASLAVSLGQRATISCRASESVDSYGNSFMHWYQQKPGQPPKLLIYRASNLESGIPARFSGSGSRTDFTLTINPVEADDVATYYCQQSNEDPYTFGGGTKLEIK , write its reported % of WT binding.
Reply | 1
